- TARGET_SYSTEM: human leukocyte elastase (HLE) (Homo sapiens)
- Construct: from tissue; host or cells: human leukocytes (from the name)
- Sequence (P08246 30-267): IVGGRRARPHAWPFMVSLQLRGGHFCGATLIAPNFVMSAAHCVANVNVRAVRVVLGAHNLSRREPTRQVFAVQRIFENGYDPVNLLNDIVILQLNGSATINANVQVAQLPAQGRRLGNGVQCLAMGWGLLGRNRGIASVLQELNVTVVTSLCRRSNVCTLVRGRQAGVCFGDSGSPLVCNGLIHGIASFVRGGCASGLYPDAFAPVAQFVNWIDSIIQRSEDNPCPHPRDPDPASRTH
- METHOD: Inactivation of human leukocyte elastase (HLE)
- Format: biochemical
- MEASUREMENT_CONDITIONS: pH 7.5; Table XVI; second order, equimolar inhibitor and enzyme; read-out: kobs/[I]
ATTRIBUTE_MEASURED: kinact/KI

STRUCTURE: O=c1oc(OCCBr)c(Cl)c2ccc(NC(=S)Nc3ccccc3)cc12
TEST_RESULT: > 480000 M⁻¹ s⁻¹
--
STRUCTURE: O=C(O)c1ccc(NC(=S)Nc2ccc3c(Cl)c(OCCBr)oc(=O)c3c2)cc1
TEST_RESULT: > 390000 M⁻¹ s⁻¹
--
STRUCTURE: C[C@H](NC(=O)Nc1ccc2c(Cl)c(OCCBr)oc(=O)c2c1)c1ccccc1
TEST_RESULT: > 570000 M⁻¹ s⁻¹
--
STRUCTURE: C[C@@H](NC(=O)Nc1ccc2c(Cl)c(OCCBr)oc(=O)c2c1)c1ccccc1
TEST_RESULT: > 440000 M⁻¹ s⁻¹
--
STRUCTURE: O=C(O)c1cccc(NC(=S)Nc2ccc3c(Cl)c(OCCBr)oc(=O)c3c2)c1
TEST_RESULT: > 240000 M⁻¹ s⁻¹
